# SYSTEM TESTED: Alpha-1B adrenergic receptor (Rattus norvegicus)
# Sequence (P15823 whole entry): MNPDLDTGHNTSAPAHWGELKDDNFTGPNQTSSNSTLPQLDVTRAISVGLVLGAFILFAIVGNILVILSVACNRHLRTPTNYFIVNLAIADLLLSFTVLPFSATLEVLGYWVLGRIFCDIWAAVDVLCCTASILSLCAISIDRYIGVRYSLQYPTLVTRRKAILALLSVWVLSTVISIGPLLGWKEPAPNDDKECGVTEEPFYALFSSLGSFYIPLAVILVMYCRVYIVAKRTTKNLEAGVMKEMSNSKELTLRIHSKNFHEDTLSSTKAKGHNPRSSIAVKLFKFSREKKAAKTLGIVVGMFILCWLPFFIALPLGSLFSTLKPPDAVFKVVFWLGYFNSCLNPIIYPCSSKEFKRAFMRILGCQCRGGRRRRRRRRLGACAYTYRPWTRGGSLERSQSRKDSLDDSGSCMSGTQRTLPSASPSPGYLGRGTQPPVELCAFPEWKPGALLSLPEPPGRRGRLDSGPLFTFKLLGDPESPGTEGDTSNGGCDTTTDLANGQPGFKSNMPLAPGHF
# PROCEDURE SUMMARY: DRUGMATRIX: Alpha-1B adrenergic receptor radioligand binding (ligand: prazosin)
# Format: cell membranes, Wistar, Liver, Membrane
# APPLIED CONDITIONS: Not Active = under 50% inhibition at 10 µM
MEASURED PROPERTY: IC50

Sample answers from the record:
MOLECULE	IC50
CC[C@@H](CO)NC(=O)[C@@H]1C=C2c3cccc4[nH]cc(c34)C[C@H]2N(C)C1	Not Active
NC(=O)N1c2ccccc2CCc2ccccc21	Not Active
OCCN(CCO)c1nc(N2CCCCC2)c2nc(N(CCO)CCO)nc(N3CCCCC3)c2n1	Not Active
OC(Cn1cncn1)(Cn1cncn1)c1ccc(F)cc1F	Not Active

I would be grateful if you could provide IC50 for each of the following entries.
1. O=NN(CCCl)C(=O)NC1CCCCC1
2. C[C@@H]1CN(c2c(F)c(N)c3c(=O)c(C(=O)O)cn(C4CC4)c3c2F)C[C@H](C)N1
3. COc1ccc(C[C@H]2NC[C@H](O)[C@H]2OC(C)=O)cc1
4. CC(C)CN(C[C@@H](O)[C@H](Cc1ccccc1)NC(=O)O[C@H]1CCOC1)S(=O)(=O)c1ccc(N)cc1
5. CC1(C)S[C@@H]2[C@H](NC(=O)Cc3ccccc3)C(=O)N2[C@H]1C(=O)O

Outgoing:
1: Not Active; 2: Not Active; 3: Not Active; 4: Not Active; 5: Not Active

----------
# SYSTEM TESTED: Voltage-gated inwardly rectifying potassium channel KCNH2 (Homo sapiens); also: in other assays of this panel Not Active means under 50% inhibition at 10 µM
# Sequence (Q12809 whole entry): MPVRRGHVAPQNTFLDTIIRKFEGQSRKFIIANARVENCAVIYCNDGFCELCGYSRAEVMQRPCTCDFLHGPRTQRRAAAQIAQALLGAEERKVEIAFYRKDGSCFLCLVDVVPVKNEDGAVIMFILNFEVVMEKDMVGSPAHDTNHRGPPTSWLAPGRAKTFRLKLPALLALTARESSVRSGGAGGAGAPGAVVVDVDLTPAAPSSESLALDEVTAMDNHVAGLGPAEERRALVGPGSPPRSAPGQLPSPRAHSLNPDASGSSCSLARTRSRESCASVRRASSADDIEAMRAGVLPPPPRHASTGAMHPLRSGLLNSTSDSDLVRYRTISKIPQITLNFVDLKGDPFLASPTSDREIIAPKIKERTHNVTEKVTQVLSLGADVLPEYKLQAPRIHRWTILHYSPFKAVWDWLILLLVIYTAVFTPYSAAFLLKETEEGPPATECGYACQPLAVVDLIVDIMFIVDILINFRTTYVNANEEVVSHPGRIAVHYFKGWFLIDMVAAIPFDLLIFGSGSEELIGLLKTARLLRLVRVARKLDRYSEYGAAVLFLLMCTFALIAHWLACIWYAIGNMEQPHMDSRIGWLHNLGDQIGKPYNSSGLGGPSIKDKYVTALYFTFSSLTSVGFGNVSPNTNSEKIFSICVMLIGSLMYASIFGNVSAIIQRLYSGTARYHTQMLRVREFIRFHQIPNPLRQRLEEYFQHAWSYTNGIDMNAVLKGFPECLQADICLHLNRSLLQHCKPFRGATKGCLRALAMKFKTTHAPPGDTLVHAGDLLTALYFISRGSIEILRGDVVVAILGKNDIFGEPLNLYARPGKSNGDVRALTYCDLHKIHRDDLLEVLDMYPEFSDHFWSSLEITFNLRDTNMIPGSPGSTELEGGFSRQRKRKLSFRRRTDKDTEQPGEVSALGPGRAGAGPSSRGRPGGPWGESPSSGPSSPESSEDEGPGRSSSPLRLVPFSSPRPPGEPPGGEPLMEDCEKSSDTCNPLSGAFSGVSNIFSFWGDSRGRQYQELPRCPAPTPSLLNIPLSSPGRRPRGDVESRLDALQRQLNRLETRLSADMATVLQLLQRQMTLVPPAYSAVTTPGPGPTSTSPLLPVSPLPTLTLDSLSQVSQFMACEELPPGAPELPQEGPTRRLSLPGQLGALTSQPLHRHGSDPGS
# APPLIED CONDITIONS: hek293

SUBSTANCE	IC50
LIPOPOLYSACCHARIDE E. COLI O55:B5	Not Active
CADMIUM ACETATE	Not Active
SODIUM NITROPRUSSIDE	Not Active
LEAD (II) ACETATE	Not Active

----------
# SYSTEM TESTED: Beta-2 adrenergic receptor (Homo sapiens)
# Sequence (P07550 whole entry): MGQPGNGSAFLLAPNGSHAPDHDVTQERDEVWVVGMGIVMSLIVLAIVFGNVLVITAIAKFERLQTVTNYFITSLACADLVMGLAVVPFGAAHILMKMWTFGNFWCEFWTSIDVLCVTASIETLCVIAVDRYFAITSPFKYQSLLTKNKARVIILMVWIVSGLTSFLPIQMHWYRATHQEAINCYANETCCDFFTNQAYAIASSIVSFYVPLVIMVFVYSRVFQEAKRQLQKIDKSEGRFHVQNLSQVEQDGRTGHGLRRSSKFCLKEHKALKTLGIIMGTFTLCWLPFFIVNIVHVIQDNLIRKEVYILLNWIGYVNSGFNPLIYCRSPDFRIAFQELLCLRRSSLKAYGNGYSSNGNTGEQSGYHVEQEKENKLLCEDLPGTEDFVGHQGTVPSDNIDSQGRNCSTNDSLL
# PROCEDURE SUMMARY: DRUGMATRIX: Adrenergic beta2 radioligand binding (ligand: [3H] CGP-12177)
# Assay type: cell membranes, Membrane
# APPLIED CONDITIONS: cho; Not Active = under 50% inhibition at 10 µM
MEASURED PROPERTY: IC50

Sample answers from the record:
MOLECULE	SYSTEM TESTED	IC50
COc1cc2c3cc1Oc1cc(ccc1O)C[C@@H]1c4c(cc(OC)c(O)c4Oc4ccc(cc4)C[C@@H]3N(C)CC2)CC[N+]1(C)C.[Cl-]	Beta-2 adrenergic receptor (Homo sapiens)	Not Active
CNCCc1ccccn1	Beta-2 adrenergic receptor (Homo sapiens)	Not Active
COc1ccc(C[C@H]2NC[C@H](O)[C@H]2OC(C)=O)cc1	Beta-2 adrenergic receptor (Homo sapiens)	Not Active
Cc1onc(-c2ccccc2Cl)c1C(=O)N[C@@H]1C(=O)N2[C@@H]1SC(C)(C)[C@@H]2C(=O)O	Beta-2 adrenergic receptor (Homo sapiens)	Not Active

Continue with the next molecule.
Incoming: Field request: IC50 | item: C1CCC(C(CC2CCCCN2)C2CCCCC2)CC1 (stereo not given)
Outgoing: Not Active

----------
# PROCEDURE SUMMARY: DRUGMATRIX: GABAA, Flunitrazepam, Central radioligand binding (ligand: [3H] Flunitrazepam)
# Assay type: cell membranes, Rattus norvegicus, Wistar, Brain, Membrane
# APPLIED CONDITIONS: Not Active = under 50% inhibition at 10 µM

SUBSTANCE	IC50
CADMIUM ACETATE	Not Active
LEAD (II) ACETATE	Not Active
SODIUM NITROPRUSSIDE	Not Active
LIPOPOLYSACCHARIDE E. COLI O55:B5	Not Active

The values you see were collected from ChEMBL document CHEMBL1909046.
